test system: HeLa Kyoto; test: solubility in G1/S (NP-40 vs SDS abundance) (log2 ratio); higher = more soluble; settings: cell cycle stage: G1/S;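 note: HeLa Kyoto cells arrested at G1/S by double thymidine block, proteins quantified by TMT10plex mass spectrometry in mild NP-40 versus SDS extracts, three biological replicates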
Please respond with reported solubility in G1/S (log2) for every item in the list.
One number for each entry.

CREBBP = -0.265
MYTITKGPSKLVAQRRTGPTQQQVEGRLGELLKCRQPAPPTSQPPRAQPFAQPPGPWPLSSPGPRLVFNRVNGRRAPSTSPSFEGTQETYTVAHEENVRFVSEAWQQVQQQLDGGPAGEGGPRPVQYVERTPNPRLQNFVPIDLDEWWAQQFLARITSCS [FAM195A] = -0.457

// below: solubility in G1/S (log2) requested for another substance
Task: Requested read-out: solubility in G1/S (log2). Entry: MSRPLITRSPASPLNNQGIPTPAQLTKSNAPVHIDVGGHMYTSSLATLTKYPESRIGRLFDGTEPIVLDSLKQHYFIDRDGQMFRYILNFLRTSKLLIPDDFKDYTLLYEEAKYFQLQPMLLEMERWKQDRETGRFSRPCECLVVRVAPDLGERITLSGDKSLIEEVFPEIGDVMCNSVNAGWNHDSTHVIRFPLNGYCHLNSVQVLERLQQRGFEIVGSCGGGVDSSQFSEYVLRRELRRTPRVPSVIRIKQEPLD [KCTD1]
Result: 0.464
